Where these numbers come from: patent US20250020635A1

# Tested on: HiBit only
# Experiment notes: Cellular thermal shift assay (CETSA), HiBit only control
# Format: cell-based, human
# Setup conditions: Table 1; @100 μM
Property: HiBit only % @100 μM

Guide cases for HiBit only % @100 μM, answers given:
Query smiles | HiBit only % @100 μM
Cc1cc(Br)ccc1S(=O)(=O)Nc1cccc(C(F)(F)F)c1 | 40%
O=S(=O)(Nc1cccc(C(F)(F)F)c1)c1ccccc1 | 82%
Cc1cccc(NS(=O)(=O)c2c(C)cc(C)cc2C)c1 | 96%
O=S(=O)(Nc1cccc(C(F)(F)F)c1)c1ccc(Cl)cc1Cl | 38%
Cc1cc(C)c(S(=O)(=O)Nc2cccc(C(F)F)c2)c(C)c1 | 104%

Continue with the next molecule.
The recorded HiBit only % @100 μM for O=S(=O)(Nc1ccc(Br)cc1F)c1cccs1 is 44%
